Test: Kinetic solubility
Assay type: physicochemical
Conditions: PBS, 25 °C, aqueous buffer, kinetic from dmso stock; pH 2.0
Description: The analysis was performed using LC-MS/MS (liquid chromatography-tandem mass spectrometry). […] PBS pH 7.4 or 2.0 (final concentration of 250 μM) was added to each well of the plates, and the DMSO concentration was kept lower than 2.5%. […] The precipitates on the incubation plate were removed by centrifugation (15 min/3000 rpm/25 °C), and the supernatant fractions were quantified by LC-MS/MS. […]
Recorded Endpoint: solubility kinetic at 24 h (µM)
Give the number; µM is assumed, so skip it.

Answer with reported solubility kinetic at 24 h of O=C(c1ccc(O)cc1)N1CCN(c2cnccn2)CC1 [Compound 2]
125
